TARGET_DESC: UniProt:P30542
Sequence (P30542 whole entry): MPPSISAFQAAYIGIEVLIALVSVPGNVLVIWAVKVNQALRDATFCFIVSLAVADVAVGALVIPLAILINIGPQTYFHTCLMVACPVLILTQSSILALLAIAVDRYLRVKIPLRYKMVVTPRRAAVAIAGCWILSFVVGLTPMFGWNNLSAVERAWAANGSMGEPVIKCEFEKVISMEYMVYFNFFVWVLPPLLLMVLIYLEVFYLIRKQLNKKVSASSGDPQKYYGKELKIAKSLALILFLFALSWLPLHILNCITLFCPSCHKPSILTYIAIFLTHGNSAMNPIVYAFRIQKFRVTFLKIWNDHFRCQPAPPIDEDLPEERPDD
ASSAY_TEXT: Displacement of [3H]DPCPX from human Adenosine A1 receptor expressed in CHO cells; range 222-400
Format: cell-based
READOUT_TYPE: pKi
pKi is defined as minus the log10 of a concentration measured in mol/L.

# pKi of CCCCn1cc2c(nc(NC(=O)Nc3ccc(Br)cc3)n3nc(-c4ccco4)nc23)n1 = 6.52

###

TARGET_DESC: Adenosine receptor A3 (Homo sapiens)
Sequence (P0DMS8 whole entry): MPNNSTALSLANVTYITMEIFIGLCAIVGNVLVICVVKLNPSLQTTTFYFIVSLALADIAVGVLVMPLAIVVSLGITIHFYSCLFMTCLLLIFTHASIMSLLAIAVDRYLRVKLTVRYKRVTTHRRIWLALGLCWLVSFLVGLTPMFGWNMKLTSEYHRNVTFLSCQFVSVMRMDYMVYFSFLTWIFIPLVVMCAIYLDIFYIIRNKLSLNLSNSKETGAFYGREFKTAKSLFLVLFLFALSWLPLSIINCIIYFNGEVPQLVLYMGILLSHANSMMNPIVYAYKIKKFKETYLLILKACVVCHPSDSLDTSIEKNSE
ASSAY_TEXT: Displacement of [3H]MRE3008-F20 from human Adenosine A3 receptor expressed in HEK cells; range 0.64-0.86
Assay type: cell-based, HEK293
READOUT_TYPE: Ki (nM)
Output spec: scalar in nM, unitless text.

# Ki of Cn1cc2c(nc(NC(=O)Nc3ccc(C(F)(F)F)cc3)n3nc(-c4ccco4)nc23)n1 = 0.74
